TESTED_TARGET: T1, human GITR (amino acids M1-V241, NCBI Accession #NP_004186.1) expressed on cells (human, UniProt Q9Y5U5 26-241)
T1 sequence: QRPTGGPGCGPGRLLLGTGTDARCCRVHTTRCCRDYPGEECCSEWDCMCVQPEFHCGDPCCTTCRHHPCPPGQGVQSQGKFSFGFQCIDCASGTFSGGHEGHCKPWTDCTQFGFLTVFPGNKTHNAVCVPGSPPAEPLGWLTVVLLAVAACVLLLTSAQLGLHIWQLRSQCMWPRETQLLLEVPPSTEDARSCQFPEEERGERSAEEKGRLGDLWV
TEST_NAME: cell-based or functional assay
ENDPOINT_NAME: fold activation, T-cell proliferation, plate-bound Ab 10.6 nM, donor 3 (fold)

BINDER	UNIT_ANNOTATION	VALUE
H4H14516P (antibody, human IgG4, V domains shown, human IgG4 (H4H)) VH: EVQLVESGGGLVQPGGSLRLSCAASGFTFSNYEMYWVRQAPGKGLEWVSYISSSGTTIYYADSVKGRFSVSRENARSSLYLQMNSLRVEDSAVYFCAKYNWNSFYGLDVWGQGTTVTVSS VL: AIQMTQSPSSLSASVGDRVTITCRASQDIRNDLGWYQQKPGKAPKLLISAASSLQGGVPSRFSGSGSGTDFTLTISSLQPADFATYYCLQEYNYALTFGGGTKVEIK	fold	4
H4H14475P (antibody, human IgG4, V domains shown, human IgG4 (H4H)) VH: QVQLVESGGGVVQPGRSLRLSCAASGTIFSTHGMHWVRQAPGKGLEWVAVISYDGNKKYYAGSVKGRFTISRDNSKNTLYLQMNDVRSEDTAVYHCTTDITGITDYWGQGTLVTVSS VL: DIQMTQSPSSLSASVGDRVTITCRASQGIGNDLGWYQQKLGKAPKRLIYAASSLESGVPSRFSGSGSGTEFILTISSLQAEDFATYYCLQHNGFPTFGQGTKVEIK	fold	2
H4H14469P (antibody, human IgG4, V domains shown, human IgG4 (H4H)) VH: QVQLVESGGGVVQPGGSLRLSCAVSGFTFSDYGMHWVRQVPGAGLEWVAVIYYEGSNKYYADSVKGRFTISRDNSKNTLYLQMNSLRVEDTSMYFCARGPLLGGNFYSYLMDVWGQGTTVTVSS VL: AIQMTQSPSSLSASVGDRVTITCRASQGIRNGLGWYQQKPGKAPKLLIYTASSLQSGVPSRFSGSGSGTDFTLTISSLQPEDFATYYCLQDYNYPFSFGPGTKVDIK	fold	12

Every entry's value here was drawn from patent US20170355774A1.
